species on record: Homo sapiens; assay: Effect on VEGF-stimulated PI3K signaling pathway in HUVEC assessed as AKT phosphorylation level at 20 uM pretreated for 10 mins followed by VEGF stimulation and subsequent compound addition measured after 20 mins by Western blot analysis relative to control
The source made the active and inactive calls. The calls are words filed in the database; no cut-off is given here.

# compound, Activity
data = [
    ("CCOC(=O)c1cc2n(n1)CC(c1ccccc1)N2C(=O)Nc1ccccc1F (stereo not given)", "inactive"),
    ("CCOC(=O)c1cnn(CC(=O)c2ccccc2)c1NC(=O)Nc1cccc(C(F)(F)F)c1", "Active"),
    ("CCOC(=O)c1cc(NC(=O)Nc2ccc(F)cc2)n(CC(O)c2ccccc2)n1 (stereo not given)", "inactive"),
    ("CC(C)(C)c1cc2n(n1)CC(c1ccccc1)N2C(=O)Nc1ccc(F)cc1 (stereo not given)", "Active"),
    ("CC(C)(C)c1cc(NC(=O)Nc2ccc(F)cc2)n(CC(O)c2ccccc2)n1 (stereo not given)", "-83%"),
    ("CCOC(=O)c1cnn(CC(O)CC)c1NC(=O)Nc1cccc(C(F)(F)F)c1 (stereo not given)", "Active"),
    ("CCOC(=O)c1cc(NC(=O)Nc2cccc(C(F)(F)F)c2)n(CC(O)c2ccccc2)n1 (stereo not given)", "inactive"),
    ("CCOC(=O)c1cnn(CC(C)O)c1NC(=O)Nc1cccc(C(F)(F)F)c1 (stereo not given)", "Active"),
    ("CCOC(=O)c1cnn(CC(O)c2ccccc2)c1NC(=O)Nc1cccc(C(F)(F)F)c1 (stereo not given)", "-37%"),
    ("CC(C)(C)c1cc2n(n1)CC(c1ccccc1)N2C(=O)Nc1cccc(C(F)(F)F)c1 (stereo not given)", "Active"),
]

====

organism: Homo sapiens; assay: Effect on VEGF-stimulated PI3K signaling pathway in HUVEC assessed as AKT phosphorylation level at 20 uM pretreated for 10 mins followed by VEGF stimulation and subsequent compound addition measured after 20 mins by Western blot analysis relative to control
The source made the active and inactive calls. The rule behind the calls is not given here.

# compound, Activity
rows = [
    ("CC(C)(C)c1cc(NC(=O)Nc2ccccc2F)n(CC(O)c2ccccc2)n1 (stereo unspecified)", "inactive"),
    ("CCOC(=O)c1cc(NC(=O)Nc2ccccc2F)n(CC(O)c2ccccc2)n1 (stereo unspecified)", "inactive"),
    ("NC(=O)c1cnn2c1N(C(=O)Nc1cccc(C(F)(F)F)c1)C(c1ccccc1)C2 (stereo unspecified)", "Active"),
    ("CCCC(O)Cn1ncc(C(=O)OCC)c1NC(=O)Nc1cccc(C(F)(F)F)c1 (stereo unspecified)", "-29%"),
    ("CCOC(=O)c1cnn(CC(=O)c2ccccc2)c1NC(=O)Nc1ccccc1F", "inactive"),
    ("CCOC(=O)c1cc2n(n1)CC(c1ccccc1)N2C(=O)Nc1cccc(F)c1 (stereo unspecified)", "Active"),
    ("CCOC(=O)c1cnn2c1N(C(=O)Nc1cccc(C(F)(F)F)c1)C(c1ccccc1)C2 (stereo unspecified)", "Active"),
    ("CCOC(=O)c1cc2n(n1)CC(c1ccccc1)N2C(=O)Nc1ccc(F)cc1 (stereo unspecified)", "Active"),
    ("CC(C)(C)c1cc(NC(=O)Nc2cccc(F)c2)n(CC(O)c2ccccc2)n1 (stereo unspecified)", "Active"),
    ("CCOC(=O)c1cnn(CC(=O)c2ccccc2)c1NC(=O)Nc1cccc(F)c1", "63%"),
    ("CCOC(=O)c1cnn(CC(=O)c2ccccc2)c1NC(=O)Nc1ccc(F)cc1", "96%"),
]

Values were extracted from ChEMBL document CHEMBL4033621.
